- method-notes: in vitro
- settings: human, HFF CC50 subconfluent
measured-metric: CC50 at 72 h (µM)

{"query-smiles": "COc1ccc(CCN2CCC(Nc3nc4ccccc4n3Cc3ccc(F)cc3)CC2)cc1", "reported-value": 8.83}

----------
- method-notes: in vitro
- settings: human, HFF CC50 confluent

{"query-smiles": "COc1ccc(CCN2CCC(Nc3nc4ccccc4n3Cc3ccc(F)cc3)CC2)cc1", "CC50 at 72 h, µM": 18}

----------
- Test system: Toxoplasma RH strain tachyzoites
- method-notes: microbe, parasite or virus in culture
- settings: 168 h, read-out: EC50, Toxoplasma RH Strain, plaque area relative to control after 7 days in HFF monolayers
measured-metric: EC50

{"query-smiles": "COc1ccc(CCN2CCC(Nc3nc4ccccc4n3Cc3ccc(F)cc3)CC2)cc1", "assayed-system": "Toxoplasma RH strain tachyzoites", "measured-metric": "EC50", "reported-value": "~2 µM"}
